Record form. Attribute: EC20. Fill in for each entry.
# Assay Target: Nuclear receptor subfamily 1 group I member 2 (Homo sapiens, UniProt O75469)
# Sequence (O75469 whole entry): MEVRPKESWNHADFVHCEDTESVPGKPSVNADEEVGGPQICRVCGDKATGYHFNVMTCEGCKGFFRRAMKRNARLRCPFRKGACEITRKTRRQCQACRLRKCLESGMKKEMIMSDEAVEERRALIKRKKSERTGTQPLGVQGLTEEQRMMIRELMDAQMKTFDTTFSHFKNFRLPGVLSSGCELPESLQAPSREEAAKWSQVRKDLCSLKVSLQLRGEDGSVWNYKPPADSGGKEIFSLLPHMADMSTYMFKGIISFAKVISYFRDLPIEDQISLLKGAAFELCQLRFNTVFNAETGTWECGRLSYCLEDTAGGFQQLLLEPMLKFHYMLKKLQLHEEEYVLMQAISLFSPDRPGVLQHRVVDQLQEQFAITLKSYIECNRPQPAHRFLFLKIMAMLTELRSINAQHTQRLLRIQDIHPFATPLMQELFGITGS
# Method Summary: Induction of PXR (unknown origin)
# Assay Context: human

Examples with answers:
For `CC(C)[C@@H](NC(=O)c1ccccc1)C(=O)N1CC[C@](O)(c2ccc(Cl)cc2)C(C)(C)C1` , write its EC20. 1.1 µM

Given `CC(C)[C@@H](NC(=O)c1cccc(C(=O)O)c1)C(=O)N1CC[C@](O)(c2ccc(Cl)cc2)C(C)(C)C1` , respond with its EC20. > 50 µM

I'm hoping you can list EC20 for every compound here, please.
1. CC(C)[C@@H](NC(=O)[C@@H]1CC[C@H](O)C1)C(=O)N1CC[C@](O)(c2ccc(Cl)cc2)C(C)(C)C1 (mixture of isomers)
2. CC(C)[C@@H](NC(=O)c1cccc(S(N)(=O)=O)c1)C(=O)N1CC[C@](O)(c2ccc(Cl)cc2)C(C)(C)C1

1: 5.3 µM; 2: > 50 µM

====

# Assay Target: C-C chemokine receptor type 1 (Homo sapiens, UniProt P32246)
# Sequence (P32246 whole entry): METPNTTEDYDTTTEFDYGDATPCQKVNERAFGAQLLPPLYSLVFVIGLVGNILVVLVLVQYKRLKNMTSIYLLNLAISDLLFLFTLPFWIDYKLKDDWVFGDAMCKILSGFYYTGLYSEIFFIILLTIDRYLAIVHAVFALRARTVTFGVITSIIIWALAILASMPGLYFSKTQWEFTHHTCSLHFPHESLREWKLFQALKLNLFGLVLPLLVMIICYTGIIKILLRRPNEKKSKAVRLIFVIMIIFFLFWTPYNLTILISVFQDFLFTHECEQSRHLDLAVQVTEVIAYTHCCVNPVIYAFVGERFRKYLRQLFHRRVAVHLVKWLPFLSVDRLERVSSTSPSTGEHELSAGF
# Method Summary: Binding affinity to human CCR1
Observable: IC50
Number first, unit second: that is the form wanted.

Reference set, count: 3
Tell us which IC50 value is on record for `CC(C)[C@@H](NC(=O)c1cccc(S(N)(=O)=O)c1)C(=O)N1CC[C@](O)(c2ccc(Cl)cc2)C(C)(C)C1` 3 nM

Quick one: give measured IC50 for CC(C)[C@@H](NC(=O)[C@H]1CC[C@@H](O)C1)C(=O)N1CC[C@](O)(c2ccc(Cl)cc2)C(C)(C)C1 (mixture of isomers) 1.6 nM

State its IC50 for this compound: `CC(C)[C@@H](NC(=O)C1CCCC1)C(=O)N1CC[C@](O)(c2ccc(Cl)cc2)C(C)(C)C1` 1.4 nM

With those in mind, consider the next compound.
Quote IC50 reported for `CC(C)[C@@H](NC(=O)c1cccnc1)C(=O)N1CC[C@H](c2ccc(Cl)cc2)C(C)(C)C1` please. 3.7 nM

====

# Assay Target: C-C chemokine receptor type 1 (Homo sapiens, UniProt P32246)
# Method Summary: Binding affinity to human CCR1
Observable: log10(IC50) (log10 of the value in nM)
The figures below represent log10 of IC50, where IC50 is stated in nM.

Completed entries (count: 10):
Specify reported log10(IC50) for the molecule shown: `CC(C)CCC(=O)N[C@@H](C(=O)N1CC[C@](O)(c2ccc(Cl)cc2)C(C)(C)C1)C(C)C` 0.23

Supply log10(IC50) value. Item: `CC(C)[C@@H](NC(=O)c1ccccc1)C(=O)N1CC[C@](O)(c2ccc(Cl)cc2)C(C)(C)C1` 1.26

Kindly indicate its recorded log10(IC50). Item: `CC(C)[C@@H](NC(=O)C1CCCCC1)C(=O)N1CC[C@](O)(c2ccc(Cl)cc2)C(C)(C)C1` 0.34

Provide measured log10(IC50) value, entry: `CC(C)[C@@H](NC(=O)C1CCC1)C(=O)N1CC[C@](O)(c2ccc(Cl)cc2)C(C)(C)C1` 0.26

Name the recorded log10(IC50) of the item `CC(C)[C@@H](NC(=O)CCCc1ccccc1)C(=O)N1CC[C@](O)(c2ccc(Cl)cc2)C(C)(C)C1` in your answer. 0.23

Dear colleague, please send me the reported log10(IC50) for `CC(C)[C@@H](NC(=O)c1ccc(Cl)cc1)C(=O)N1CC[C@](N)(c2ccc(Cl)cc2)C(C)(C)C1` when you can. 2.29

Identify the reported log10(IC50) for the following entry. `CC(C)C(=O)N[C@@H](C(=O)N1CC[C@](O)(c2ccc(Cl)cc2)C(C)(C)C1)C(C)C` 0.66

State its log10(IC50) for this molecule: `CC(C)[C@@H](NC(=O)CC12CC3CC(CC(C3)C1)C2)C(=O)N1CC[C@](O)(c2ccc(Cl)cc2)C(C)(C)C1` 0.41

// Input: `CC(C)[C@@H](NC(=O)c1ccc(Cl)cc1)C(=O)N1CC[C@@](O)(c2ccc(Cl)cc2)C(C)(C)C1` . Output its log10(IC50) only. 3.26

Supply measured log10(IC50) of `CC(=O)N[C@@H](C(=O)N1CC[C@](O)(c2ccc(Cl)cc2)C(C)(C)C1)C(C)C` in your reply. 1.11

Answer for every listed entry: what is its log10(IC50)? The entries follow.
1. CC(C)[C@@H](NC(=O)c1ccc(Cl)cc1)C(=O)N1CCC(O)(c2ccc(Cl)cc2)C2(CCCC2)C1 (mixture of isomers)
2. CC(C)[C@@H](NC(=O)c1ccc(Cl)cc1)C(=O)N1CC[C@](O)(c2ccc(Cl)cc2)C(C)(C)C1
3. CC(C)[C@@H](NC(=O)c1ccccc1)C(=O)N1CCC(c2ccc(Cl)cc2)CC1
4. CC(C)[C@@H](NC(=O)c1cccc(-c2ccccc2NC(N)=O)c1)C(=O)N1CCC(c2ccc(Cl)cc2)CC1
5. CC(C)[C@@H](NC(=O)Cc1ccncc1)C(=O)N1CCC(c2ccc(Cl)cc2)CC1

2.32
0.52
1.48
0.83
0.97

Please go through the list and note log10(IC50) for each molecule.
1. CC(C)[C@@H](NC(=O)CC1CC1)C(=O)N1CC[C@](O)(c2ccc(Cl)cc2)C(C)(C)C1
2. CC(C)[C@@H](NC(=O)c1cccc(-c2ccccc2NC(N)=O)c1)C(=O)N1CC[C@](O)(c2ccc(Cl)cc2)C(C)(C)C1

1: 0.00; 2: 0.53

Required: log10(IC50), one value per molecule below.
1. CC(C)[C@@H](NC(=O)C1CCCC1(O)CCN1CCOCC1)C(=O)N1CC[C@](O)(c2ccc(Cl)cc2)C(C)(C)C1 (stereo partly specified)
2. CC(C)[C@@H](NC(=O)c1cccc(C(=O)O)c1)C(=O)N1CC[C@](O)(c2ccc(Cl)cc2)C(C)(C)C1
3. CC(C)[C@H](CN1CC[C@](O)(c2ccc(Cl)cc2)C(C)(C)C1)NC(=O)c1ccccc1
4. CC(C)[C@@H](NC(=O)[C@@H]1CC[C@H](N)C1)C(=O)N1CC[C@](O)(c2ccc(Cl)cc2)C(C)(C)C1 (mixture of isomers)
5. CCC(=O)N[C@@H](C(=O)N1CC[C@](O)(c2ccc(Cl)cc2)C(C)(C)C1)C(C)C
6. CC(C)[C@@H](NC(=O)C1CC1)C(=O)N1CC[C@](O)(c2ccc(Cl)cc2)C(C)(C)C1
7. CC(C)[C@@H](NC(=O)[C@@H]1CCC[C@@H]1O)C(=O)N1CC[C@](O)(c2ccc(Cl)cc2)C(C)(C)C1 (relative stereo)
8. CC(C)[C@@H](NC(=O)c1cccc(S(N)(=O)=O)c1)C(=O)N1CCC(c2ccc(Cl)cc2)CC1

[0.36, 0.85, 3.35, 3.20, 0.65, 0.48, 0.36, 1.60]

# batch: return log10(IC50) for each of the 5 molecules below
1. CO[C@]1(c2ccc(Cl)cc2)CCN(C(=O)[C@H](NC(=O)c2ccc(Cl)cc2)C(C)C)CC1(C)C
2. CC(C)[C@@H](NC(=O)[C@H]1CC[C@H](O)C1)C(=O)N1CC[C@](O)(c2ccc(Cl)cc2)C(C)(C)C1 (mixture of isomers)
3. CC(C)[C@@H](NC(=O)[C@@H]1CCC[C@H]1O)C(=O)N1CC[C@](O)(c2ccc(Cl)cc2)C(C)(C)C1 (mixture of isomers)
4. CC(C)[C@@H](NC(=O)c1ccc(F)c(O)c1)C(=O)N1CC[C@](O)(c2ccc(Cl)cc2)C(C)(C)C1
5. CC(C)CC(=O)N[C@@H](C(=O)N1CC[C@](O)(c2ccc(Cl)cc2)C(C)(C)C1)C(C)C

[4.40, 0.80, 1.30, 0.46, 0.46]

====

# Assay Target: C-C chemokine receptor type 1 (Homo sapiens, UniProt P32246)
# Method Summary: Antagonist activity at CCR1 in whole blood (unknown origin) assessed as inhibition of LKN1-induced upregulation of beta2-integrin CD11b
Observable: pIC50
One number for each entry, as −log10 of the molar value.

Return the recorded pIC50 value; entry: CC(C)[C@@H](NC(=O)[C@@H]1CC[C@@H](O)C1)C(=O)N1CC[C@](O)(c2ccc(Cl)cc2)C(C)(C)C1 (mixture of isomers) 7.27

====

Kindly state EC20 for each of the entries shown.
# Assay Target: Nuclear receptor subfamily 1 group I member 2 (Homo sapiens)
# Method Summary: Induction of PXR (unknown origin)
# Assay Context: human

Return EC20 for the following compound: CC(C)[C@@H](NC(=O)[C@H]1CC[C@@H](O)C1)C(=O)N1CC[C@](O)(c2ccc(Cl)cc2)C(C)(C)C1 (mixture of isomers) 1.8 µM

Record EC20 for all entries; do not skip any.
1. CC(C)[C@@H](NC(=O)C1CCCC1)C(=O)N1CC[C@](O)(c2ccc(Cl)cc2)C(C)(C)C1
2. CC(C)[C@@H](NC(=O)[C@H]1CC[C@H](O)C1)C(=O)N1CC[C@](O)(c2ccc(Cl)cc2)C(C)(C)C1 (mixture of isomers)
3. CC(C)[C@@H](NC(=O)[C@@H]1CC[C@@H](O)C1)C(=O)N1CC[C@](O)(c2ccc(Cl)cc2)C(C)(C)C1 (mixture of isomers)

0.4 µM
> 50 µM
41 µM

Reference source for all entries: ChEMBL document CHEMBL2396549
